tgt: CLK3 kinase (Homo sapiens, UniProt P49761)
Sequence (P49761 whole entry): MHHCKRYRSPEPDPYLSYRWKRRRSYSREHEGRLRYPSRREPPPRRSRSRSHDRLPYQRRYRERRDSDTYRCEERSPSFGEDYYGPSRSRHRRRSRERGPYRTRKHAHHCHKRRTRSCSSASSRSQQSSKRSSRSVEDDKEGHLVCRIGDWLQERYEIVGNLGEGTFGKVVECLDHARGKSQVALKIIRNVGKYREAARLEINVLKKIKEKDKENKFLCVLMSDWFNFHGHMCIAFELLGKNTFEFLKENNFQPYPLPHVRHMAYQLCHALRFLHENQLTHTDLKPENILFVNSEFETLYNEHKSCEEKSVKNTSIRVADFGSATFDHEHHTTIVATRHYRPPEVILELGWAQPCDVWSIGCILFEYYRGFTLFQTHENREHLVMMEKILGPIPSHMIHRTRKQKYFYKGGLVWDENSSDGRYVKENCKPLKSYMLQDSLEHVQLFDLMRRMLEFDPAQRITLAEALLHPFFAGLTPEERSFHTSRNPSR
experimentalProtocol: CLK3 kinase activity assay (Z-lyte FRET)
testConditions: Z-lyte Ser/Thr 18 peptide, 156 μM ATP, 1 h at room temperature
pEC50: −log10 of the molar value.
observable: pEC50

Record excerpt, results attached:
Identify measured pEC50 corresponding to CN1CCC(Oc2ccc(NC(=O)c3n[nH]cc3/C=C/c3cccnc3)cn2)CC1
6.13

Supply recorded pEC50 for CN1CCN(c2cccc3[nH]c(-c4n[nH]c5ncc(-c6cncc(CN7CCCCC7)c6)cc45)cc23)CC1 here.
6.01

Supply reported pEC50 belonging to this molecule: O=C(Nc1cnccc1NC(=O)C1CC1)c1n[nH]c2ccc(-c3cncc(CN4CCCCC4)c3)cc12
5.90

Please supply the value of reported pEC50 for the item CCCCC(=O)Nc1cncc(-c2cnc3[nH]nc(-c4cc5cnccc5[nH]4)c3c2)c1
7.08

Look up and report measured pEC50 for this entry: CCCC(=O)Nc1cncc(-c2ccc3[nH]nc(-c4cc5c(-c6ccncc6)cncc5[nH]4)c3c2)c1
7.34

I = CN1CCN(c2cc(C(=O)Nc3cc4c(Cl)c(-c5cnn(C)c5)ccc4cn3)ccn2)CC1
II = CC(C)CC(=O)Nc1cncc(-c2ccc3[nH]nc(-c4nc5c(-c6ccc(Cl)s6)cncc5[nH]4)c3n2)c1
Smaller pEC50 value, I vs II ? Reply with the label of the item you choose.
II
(II: 7.17, I: 7.37)

* * *

tgt: CLK2 kinase (Homo sapiens, UniProt P49760)
Sequence (P49760 whole entry): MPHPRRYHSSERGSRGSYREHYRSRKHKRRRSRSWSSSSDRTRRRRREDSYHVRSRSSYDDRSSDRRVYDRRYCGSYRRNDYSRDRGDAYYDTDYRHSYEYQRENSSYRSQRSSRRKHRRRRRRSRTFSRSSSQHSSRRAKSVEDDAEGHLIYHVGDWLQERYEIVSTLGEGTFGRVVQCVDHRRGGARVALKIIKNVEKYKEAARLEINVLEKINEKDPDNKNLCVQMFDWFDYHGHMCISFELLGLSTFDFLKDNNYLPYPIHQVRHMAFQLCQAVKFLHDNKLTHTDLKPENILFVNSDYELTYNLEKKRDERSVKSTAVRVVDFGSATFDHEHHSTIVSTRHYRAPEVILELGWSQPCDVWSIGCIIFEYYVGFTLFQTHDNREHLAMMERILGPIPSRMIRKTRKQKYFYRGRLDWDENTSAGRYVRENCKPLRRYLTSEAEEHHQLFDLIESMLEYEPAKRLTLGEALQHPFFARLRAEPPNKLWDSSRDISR
experimentalProtocol: CLK2 kinase activity assay (Z-lyte FRET);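 also: FRET read-out as coumarin to fluorescein emission ratio, unphosphorylated peptide as 0% and phosphorylated peptide as 100% controls, duplicate reactions, non-linear regression fit of dose-response curves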
testConditions: Z-lyte Ser/Thr 6 peptide, 60 μM ATP, 1 h at room temperature
observable: EC50 (nM)

Give EC50 only, for CN(C)Cc1cncc(NC(=O)c2n[nH]c3ccc(-c4cncc(CN5CCCC5)c4)cc23)c1 , using CLK2 kinase (Homo sapiens, UniProt P49760) data.
1

a = O=C(Nc1cncc(-c2cc3c(-c4cc5cnccc5[nH]4)n[nH]c3cn2)c1)c1ccccc1
b = CN1CCC(Nc2cc(C(=O)Nc3cc4cc(-c5cnn(C)c5)ccc4cn3)ccn2)CC1
c = O=C(Nc1ccc(OCCN2CCCC2)nc1)c1n[nH]cc1C#Cc1cccnc1
Ascending by EC50, please. Answer format: the labels, ordered as requested.
b, a, c

* * *

tgt: CLK2 kinase (Homo sapiens)
experimentalProtocol: CLK2 kinase activity assay (Z-lyte FRET)
testConditions: Z-lyte Ser/Thr 6 peptide, 60 μM ATP, 1 h at room temperature
observable: EC50 (nM)

Reference set, count: 2
For CLK2 kinase (Homo sapiens), give the measured EC50 of the entry c1cc2cc(-c3n[nH]c4ccc(-c5cncc(OCCN6CCCC6)c5)cc34)[nH]c2cn1
2

Write EC50 of CN1CCN(c2cc(C(=O)Nc3cc4cc(-c5cnn(C6CC6)c5)ccc4cn3)ccn2)CC1 ; system used: CLK2 kinase (Homo sapiens)
6

I = O=C(Nc1cncc(-c2ccc3[nH]nc(-c4nc5c(-c6cccnc6)cncc5[nH]4)c3c2)c1)c1ccccc1
II = COc1cncc(C#Cc2c[nH]nc2C(=O)Nc2ccc(OC3CCN(C)CC3)nc2)c1
Smaller EC50 value? Options are I and II Write down the label attached to your selection.
I
(I: 5 nM, II: 18 nM)

* * *

tgt: CLK3 kinase (Homo sapiens, UniProt P49761)
experimentalProtocol: CLK3 kinase activity assay (Z-lyte FRET);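 also: kinase activity read as coumarin/fluorescein emission ratio by FRET, unphosphorylated peptide as 0% and phosphorylated peptide as 100% control, values from non-linear regression of dose-response curves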
testConditions: Z-lyte Ser/Thr 18 peptide, 156 μM ATP, 1 h at room temperature
observable: EC50 (nM)

Report EC50, nothing else, for this compound: CN1CCN(c2cncc3[nH]c(-c4n[nH]c5ccc(-c6cncc(NC(=O)CC(C)(C)C)c6)cc45)cc23)CC1
145

a = CN(C)Cc1cncc(-c2cnc3[nH]nc(-c4nc5c(-c6cc(F)cc(N7CCOCC7)c6)cncc5[nH]4)c3c2)c1
b = O=C(Nc1ccc2c(c1)OCCO2)c1n[nH]c2ccc(-c3cncc(CN4CCCCC4)c3)cc12
c = Cn1cc(-c2cnc3[nH]nc(-c4nc5c(-c6cccc(F)c6)nccc5[nH]4)c3c2)cn1
I would appreciate it if you could sort these 3 compounds by EC50, starting from the smallest number. API: response body holds the labels in the requested order.
a, b, c

Each recorded value in this set is attributed to patent US20230000842A1.
